Ref: ChEMBL document CHEMBL4706586

test: Selectivity ratio of Ki for sigma 1 receptor in guinea pig brain cortex membranes to Ki for DAT in Sprague-Dawley rat striatum membranes; type: cell membranes
VALUE_TYPE: Ratio Ki

**Query** Ratio Ki for `Fc1ccc(C(SCCNC2CCN(CC3CC3)CC2)c2ccc(F)cc2)cc1` ?
**Result** 0.66

**Query** Ratio Ki for NC(=O)C[S+]([O-])C(c1ccc(F)cc1)c1ccc(F)cc1 (racemic) ?
**Result** > 24

**Query** Ratio Ki for `O=C(c1ccc(F)cc1)N1CCC(NCCSC(c2ccc(F)cc2)c2ccc(F)cc2)CC1` ?
**Result** 4.59

====

Could you please report measured pKi for the items listed next?
test: Displacement of [3H]-Nisoxetine from NET in Sprague-Dawley rat frontal cortex membrane after 180 mins by microbeta scintillation counting method; assay type: cell membranes
# pKi = -log10(concentration in molar units)

**Query** pKi for [O-][S+](CCNC1CCN(Cc2ccc(F)cc2)CC1)C(c1ccc(F)cc1)c1ccc(F)cc1 (configuration not stated) ?
**Result** 4.95

**Query** pKi for OC(Cc1ccccc1)CN1CCC(NCCSC(c2ccc(F)cc2)c2ccc(F)cc2)CC1 (configuration not stated) ?
**Result** 6.23

**Query** pKi for `O=C(c1ccccc1)N1CCC(NCCSC(c2ccc(F)cc2)c2ccc(F)cc2)CC1` ?
**Result** 6.04

**Query** pKi for O=C(c1ccc(F)cc1)N1CCC(NCC[S+]([O-])C(c2ccc(F)cc2)c2ccc(F)cc2)CC1 (configuration not stated) ?
**Result** 4.64

**Query** pKi for `O=C(c1ccc(F)cc1F)N1CCC(NCCSC(c2ccc(F)cc2)c2ccc(F)cc2)CC1` ?
**Result** 5.79

**Query** pKi for `O=C(c1ccc(F)cc1)N1CCC(NCCSC(c2ccc(F)cc2)c2ccc(F)cc2)CC1` ?
**Result** 6.59

====

assay: Metabolic stability in rat liver microsomes assessed as compound remaining at 10 uM incubated for 60 mins in presence of NADPH regenerating system by LC-MS/MS analysis; type: ADME, Microsome; details: 1 h
VALUE_TYPE: Stabilty (%)
// return numeric value only (unit: %, not printed)

**Query** Stabilty for O=C(c1ccc(F)cc1)N1CCC(NCC[S+]([O-])C(c2ccc(F)cc2)c2ccc(F)cc2)CC1 (centres undefined) ?
**Result** 79

**Query** Stabilty for [O-][S+](CCNC1CCN(CC(O)Cc2ccccc2)CC1)C(c1ccc(F)cc1)c1ccc(F)cc1 (centres undefined) ?
**Result** 22

**Query** Stabilty for OC(Cc1ccccc1)CN1CCC(NCCSC(c2ccc(F)cc2)c2ccc(F)cc2)CC1 (centres undefined) ?
**Result** 74

**Query** Stabilty for OC(CNC1CCN(CCSC(c2ccc(F)cc2)c2ccc(F)cc2)CC1)Cc1ccccc1 (centres undefined) ?
**Result** 69

**Query** Stabilty for `O=C(c1ccc(F)cc1F)N1CCC(NCCSC(c2ccc(F)cc2)c2ccc(F)cc2)CC1` ?
**Result** 85

**Query** Stabilty for [O-][S+](CCNC1CCN(Cc2ccc(F)cc2)CC1)C(c1ccc(F)cc1)c1ccc(F)cc1 (centres undefined) ?
**Result** 95

**Query** Stabilty for `O=C(c1ccc(F)cc1)N1CCC(NCCSC(c2ccc(F)cc2)c2ccc(F)cc2)CC1` ?
**Result** 24

**Query** Stabilty for `Fc1ccc(CN2CCC(NCCSC(c3ccc(F)cc3)c3ccc(F)cc3)CC2)cc1` ?
**Result** 70

**Query** Stabilty for `O=C(c1ccccc1)N1CCC(NCCSC(c2ccc(F)cc2)c2ccc(F)cc2)CC1` ?
**Result** 7

====

assay: Selectivity ratio of Ki for sigma 1 receptor in guinea pig brain cortex membranes to Ki for DAT in Sprague-Dawley rat striatum membranes; format: cell membranes
Could you please report measured Ratio Ki for the items listed next?
Give your answer as a number; write no unit.

**Query** Ratio Ki for `Fc1ccc(C(SCCNC2CCN(Cc3ccccc3)CC2)c2ccc(F)cc2)cc1` ?
**Result** 0.12

**Query** Ratio Ki for CC(O)CN1[C@H](C)CN(CCSC(c2ccc(F)cc2)c2ccc(F)cc2)C[C@@H]1C (some centres undefined) ?
**Result** 0.243

**Query** Ratio Ki for `O=C(c1ccccc1)N1CCC(NCCSC(c2ccc(F)cc2)c2ccc(F)cc2)CC1` ?
**Result** 0.45

**Query** Ratio Ki for `O=C(c1ccccc1F)N1CCC(NCCSC(c2ccc(F)cc2)c2ccc(F)cc2)CC1` ?
**Result** 0.08

**Query** Ratio Ki for CN(CC[S+]([O-])C(c1ccc(F)cc1)c1ccc(F)cc1)C1CCN(C(=O)c2ccccc2F)CC1 (centres undefined) ?
**Result** 0.07

**Query** Ratio Ki for `Fc1ccc(C(SCCNC2CCN(Cc3ccc(Cl)cc3)CC2)c2ccc(F)cc2)cc1` ?
**Result** 1.15

**Query** Ratio Ki for `Fc1ccc(CN2CCC(NCCSC(c3ccc(F)cc3)c3ccc(F)cc3)CC2)cc1` ?
**Result** 0.52

**Query** Ratio Ki for [O-][S+](CCNC1CCN(Cc2ccc(F)cc2)CC1)C(c1ccc(F)cc1)c1ccc(F)cc1 (centres undefined) ?
**Result** 0.52

**Query** Ratio Ki for `CC(C)(C)CN1CCC(NCCSC(c2ccc(F)cc2)c2ccc(F)cc2)CC1` ?
**Result** 1.13

====

molecular target: D(2) dopamine receptor (Homo sapiens, UniProt P14416)
Sequence (P14416 whole entry): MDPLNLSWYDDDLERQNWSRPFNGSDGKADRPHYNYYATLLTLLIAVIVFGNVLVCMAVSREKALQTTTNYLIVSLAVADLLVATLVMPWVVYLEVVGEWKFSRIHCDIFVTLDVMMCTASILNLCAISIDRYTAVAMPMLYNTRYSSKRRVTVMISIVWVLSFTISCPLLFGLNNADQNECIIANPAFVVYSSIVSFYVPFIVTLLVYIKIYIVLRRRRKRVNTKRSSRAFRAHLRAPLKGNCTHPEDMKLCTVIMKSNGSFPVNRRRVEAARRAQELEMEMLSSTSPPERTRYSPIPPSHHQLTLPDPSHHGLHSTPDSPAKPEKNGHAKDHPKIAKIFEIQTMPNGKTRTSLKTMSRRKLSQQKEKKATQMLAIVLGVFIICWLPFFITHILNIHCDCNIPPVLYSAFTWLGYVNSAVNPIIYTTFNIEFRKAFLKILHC
VALUE_TYPE: Ki (µM)
// return numeric value only (unit: µM, not printed)

**Query** Ki for `Fc1ccc(CN2CCC(NCCSC(c3ccc(F)cc3)c3ccc(F)cc3)CC2)cc1` ?
**Result** 2.92

**Query** Ki for OC(Cc1ccccc1)CN1CCC(NCCSC(c2ccc(F)cc2)c2ccc(F)cc2)CC1 (centres undefined) ?
**Result** 4.02

**Query** Ki for OC(CNC1CCN(CCSC(c2ccc(F)cc2)c2ccc(F)cc2)CC1)Cc1ccccc1 (centres undefined) ?
**Result** 2.27

**Query** Ki for O=C(c1ccc(F)cc1)N1CCC(NCC[S+]([O-])C(c2ccc(F)cc2)c2ccc(F)cc2)CC1 (centres undefined) ?
**Result** 156

**Query** Ki for `CC(C)(C)C(=O)N1CCC(NCCSC(c2ccc(F)cc2)c2ccc(F)cc2)CC1` ?
**Result** 6.07

**Query** Ki for `O=C(c1ccc(F)cc1F)N1CCC(NCCSC(c2ccc(F)cc2)c2ccc(F)cc2)CC1` ?
**Result** 7.44

**Query** Ki for CC(O)CN1[C@H](C)CN(CCSC(c2ccc(F)cc2)c2ccc(F)cc2)C[C@@H]1C (some centres undefined) ?
**Result** 11.9

**Query** Ki for [O-][S+](CCNC1CCN(CC(O)Cc2ccccc2)CC1)C(c1ccc(F)cc1)c1ccc(F)cc1 (centres undefined) ?
**Result** 6.61

====

molecular target: D(3) dopamine receptor (Homo sapiens, UniProt P35462)
Sequence (P35462 whole entry): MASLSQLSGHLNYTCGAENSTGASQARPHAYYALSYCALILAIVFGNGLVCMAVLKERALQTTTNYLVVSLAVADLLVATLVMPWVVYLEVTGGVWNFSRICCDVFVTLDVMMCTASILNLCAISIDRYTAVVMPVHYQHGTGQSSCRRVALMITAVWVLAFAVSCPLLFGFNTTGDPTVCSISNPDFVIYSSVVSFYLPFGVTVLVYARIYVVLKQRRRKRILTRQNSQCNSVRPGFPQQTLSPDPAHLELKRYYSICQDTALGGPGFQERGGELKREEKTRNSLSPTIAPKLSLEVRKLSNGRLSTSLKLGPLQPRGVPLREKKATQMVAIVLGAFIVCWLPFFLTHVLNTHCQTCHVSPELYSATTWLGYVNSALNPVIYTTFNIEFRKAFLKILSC
Could you please report measured pKi for the items listed next?
# pKi = -log10(concentration in molar units)

**Query** pKi for [O-][S+](CCNC1CCN(CC(O)Cc2ccccc2)CC1)C(c1ccc(F)cc1)c1ccc(F)cc1 (stereo not drawn) ?
**Result** 5.26

**Query** pKi for `O=C(c1ccc(F)cc1F)N1CCC(NCCSC(c2ccc(F)cc2)c2ccc(F)cc2)CC1` ?
**Result** 5.49

**Query** pKi for `O=C(c1ccccc1)N1CCC(NCCSC(c2ccc(F)cc2)c2ccc(F)cc2)CC1` ?
**Result** 5.60

====

Could you please report measured pKi for the items listed next?
biological target: Sigma non-opioid intracellular receptor 1 (Cavia porcellus, UniProt Q60492); assay: Displacement of [3H](+)-pentazocine from sigma 1 receptor in guinea pig brain cortex membranes after 120 mins by scintillation counting analysis; format: cell membranes, Membrane
Sequence (Q60492 whole entry): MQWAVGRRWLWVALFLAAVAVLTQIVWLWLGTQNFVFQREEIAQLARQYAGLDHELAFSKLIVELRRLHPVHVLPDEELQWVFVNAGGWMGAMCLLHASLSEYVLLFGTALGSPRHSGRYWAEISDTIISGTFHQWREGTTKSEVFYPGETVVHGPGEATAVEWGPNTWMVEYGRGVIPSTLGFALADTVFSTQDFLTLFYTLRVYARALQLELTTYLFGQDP
# pKi = -log10(concentration in molar units)

**Query** pKi for `O=C(c1cc2ccccc2[nH]1)N1CCC(NCCSC(c2ccc(F)cc2)c2ccc(F)cc2)CC1` ?
**Result** 5.95

**Query** pKi for OC(CNC1CCN(CCSC(c2ccc(F)cc2)c2ccc(F)cc2)CC1)Cc1ccccc1 (stereo not given) ?
**Result** 7.06

**Query** pKi for `CN(CCSC(c1ccc(F)cc1)c1ccc(F)cc1)C1CCN(C(=O)c2ccccc2F)CC1` ?
**Result** 8.23

**Query** pKi for `Fc1ccc(C(SCCNC2CCN(Cc3cc4ccccc4[nH]3)CC2)c2ccc(F)cc2)cc1` ?
**Result** 6.69

====

molecular target: Sigma non-opioid intracellular receptor 1 (Cavia porcellus, UniProt Q60492); assay: Displacement of [3H](+)-pentazocine from sigma 1 receptor in guinea pig brain cortex membranes after 120 mins by scintillation counting analysis; type: cell membranes, Membrane
Could you please report measured Ki for the items listed next?
Report the figure along with its unit, number first.

**Query** Ki for `Fc1ccc(C(SCCN2CCC(NCc3ccc(C(F)(F)F)cc3)CC2)c2ccc(F)cc2)cc1` ?
**Result** 162 nM

**Query** Ki for CC(C)(C)C(=O)N1CCC(NCC[S+]([O-])C(c2ccc(F)cc2)c2ccc(F)cc2)CC1 (centres undefined) ?
**Result** 11200 nM

**Query** Ki for CC(C)(C)CN1CCC(NCC[S+]([O-])C(c2ccc(F)cc2)c2ccc(F)cc2)CC1 (centres undefined) ?
**Result** 542 nM

**Query** Ki for O=C(c1ccccc1)N1CCC(NCC[S+]([O-])C(c2ccc(F)cc2)c2ccc(F)cc2)CC1 (centres undefined) ?
**Result** 585 nM
